# Test system: EKVX NSCLC
# procedureSummary: NCI-60 one-dose screen, 48 h (100 = growth as untreated, 0 = no growth, -100 = all killed)
# measurementContext: 10 µM
The panel holds about 83,000 compounds, 20% with a hit somewhere; the sample as a whole holds those more often.
Give measured growth for each item. Keep answers brief.
Number in %, nothing else.

Request: Fill blank: measured growth of the compound COc1cc(Cn2c(-c3ccccc3)cc3c2-c2oncc2CC3)cc(OC)c1 is ____.
Response: 43.7

Request: Fill blank: measured growth of the compound Cc1ccc2c(c1)-c1cc(C)nn1-c1ccc(C#N)cc1O2 is ____.
Response: 65.7

Request: Fill blank: measured growth of the compound COC(=O)[C@]12CC[C@@H](C)[C@H](C)[C@@H]1C1=CC[C@@H]3[C@@]4(C)CC(=O)[C@H](O)[C@@]5(C)COC(=C45)C[C@@]3(C)[C@]1(C)CC2 is ____.
Response: -55.5

Request: Fill blank: measured growth of the compound COC1OC2COC(c3ccccc3)OC2C(=O)C1NC(=O)c1ccccc1 (stereo not given) is ____.
Response: 79.5

Request: Fill blank: measured growth of the compound COc1cc(C2=Nc3c/c(=C\c4c(O)[nH]c5ccc(Cl)cc45)ccc3=N2)cc(OC)c1OC is ____.
Response: 77.7

Request: Fill blank: measured growth of the compound CN(C)CCCN1c2ccccc2Sc2ccc(C(F)(F)F)cc21 is ____.
Response: 43.4

Request: Fill blank: measured growth of the compound CC[C@@]1(C(N)=O)CC2C=CC1C2 (stereo not given in full) is ____.
Response: 102

Request: Fill blank: measured growth of the compound CS(=O)(=O)Nc1ccc([N+](=O)[O-])cc1Oc1ccccc1 is ____.
Response: 87.6

Request: Fill blank: measured growth of the compound Nc1nc(SCC#CCCl)c2[nH]cnc2n1 is ____.
Response: 54.4

Request: Fill blank: measured growth of the compound COc1ccc(C2=Cc3ccc(OC(C)=O)cc3OC2)cc1 is ____.
Response: 66.2

Request: Fill blank: measured growth of the compound CCCCCN(CCCCC)C(C)C(O)c1ccc2cc(Cl)c3ccccc3c2c1 (stereo not given) is ____.
Response: 102

Request: Fill blank: measured growth of the compound CCOC(=O)[C@@H](Cc1ccccc1)NC(=O)c1[nH]c2ccc(Cl)cc2c(=O)c1C is ____.
Response: 97.4

Request: Fill blank: measured growth of the compound CC(=O)c1ccc(NCn2nc(-c3ccc(Cl)cc3)oc2=S)cc1 is ____.
Response: 103

Request: Fill blank: measured growth of the compound Cc1ccc(S(=O)(=O)Oc2ccccc2-c2ccccc2)cc1 is ____.
Response: 46

Request: Fill blank: measured growth of the compound CC(CNC(Cc1ccccc1)c1ccccc1)NC(Cc1ccccc1)c1ccccc1 (stereo not given) is ____.
Response: 26.8
